// provenance: patent US8426429B2

# experimental.system: β-secretase (BACE) (Homo sapiens, UniProt P56817)
# Construct: purchased Panvera
# Sequence (P56817 46-501): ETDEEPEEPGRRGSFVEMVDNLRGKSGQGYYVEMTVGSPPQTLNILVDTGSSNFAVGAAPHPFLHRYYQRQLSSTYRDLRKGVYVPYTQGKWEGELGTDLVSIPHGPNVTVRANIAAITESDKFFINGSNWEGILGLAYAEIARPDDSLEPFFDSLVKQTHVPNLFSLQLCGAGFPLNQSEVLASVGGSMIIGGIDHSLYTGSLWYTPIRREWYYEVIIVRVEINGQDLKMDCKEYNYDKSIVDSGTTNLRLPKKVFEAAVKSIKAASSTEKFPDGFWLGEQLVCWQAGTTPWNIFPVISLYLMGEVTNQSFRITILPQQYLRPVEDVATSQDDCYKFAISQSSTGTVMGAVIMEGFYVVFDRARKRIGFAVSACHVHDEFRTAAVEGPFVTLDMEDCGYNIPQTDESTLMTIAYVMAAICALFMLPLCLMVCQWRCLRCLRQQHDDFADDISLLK
# method: BACE FS1 % Inhibition Assay
# Format: biochemical
# setup.conditions: 3 μM test compound
# Protocol: The following reagents were used in this assay: sodium acetate, PEG8000 (Sigma), DMSO, HEPES, FS1 substrate [[…]] […] The FS1-substrate stock solution was prepared in DMSO as a 10 mg/mL solution. The FS1-substrate working solution was prepared by diluting the 10 mg/mL stock solution with substrate assay buffer to a final concentration of 300 μg/mL. […] For test compounds, % inhibition was determined at each concentration as follows: [formula]
Please provide measured % Inhibition (FS) for the entries that follow.

# compound NC1=Nc2ccc(Oc3ccccc3)cc2CN1C1CCCCN(C(=O)C2CCCCC2)C1 (centres unmarked) ; its % Inhibition (FS) = <30%

# compound CC(C)(C)C(=O)NCCN1Cc2cc(-c3ccccc3Cl)ccc2N=C1N ; its % Inhibition (FS) = 101%

# compound C=CCc1cccc(C)c1Oc1ccc2c(c1)CN(Cc1cccc(C(=O)N(C)C3CCCCC3)c1)C(N)=N2 ; its % Inhibition (FS) = 38%

# compound COc1ccc(Nc2ccc3c(c2)CN(Cc2cccc(C(=O)N(C)C4CCCCC4)c2)C(N)=N3)cc1 ; its % Inhibition (FS) = <30%

# compound COc1ccc2c(c1)C(CC(=O)N(C)C1CCCCC1)CC2N1Cc2cc(Oc3ccccc3)ccc2N=C1N (centres unmarked) ; its % Inhibition (FS) = <30%

# compound CC1CCC(NC(=O)c2cccc(CN3Cc4cc(Oc5ccccc5)ccc4N=C3N)c2)CC1 (centres unmarked) ; its % Inhibition (FS) = <30%

# compound CN(C(=O)c1ccccc1CN1Cc2cc(Oc3ccccc3)ccc2N=C1N)C1CCCCC1 ; its % Inhibition (FS) = <30%

# compound CC(C)c1ccc(Sc2ccc3c(c2)CN(Cc2cccc(C(=O)N(C)C4CCCCC4)c2)C(N)=N3)cc1 ; its % Inhibition (FS) = 48%

====

# experimental.system: β-secretase (BACE) (Homo sapiens, UniProt P56817)
# Construct: purchased Panvera
# method: BACE FS1 % Inhibition Assay
# Assay type: biochemical
# setup.conditions: 1 μM test compound
Please provide measured % Inhibition (FS) for the entries that follow.
A number alone suffices; assume %.

The reported % Inhibition (FS) value, β-secretase (BACE) (Homo sapiens, UniProt P56817), for CC1CCCCN1C(=O)CCCC(CCC(=O)N1CCCCC1C)N1Cc2cc(Oc3ccccc3)ccc2N=C1N (stereo not shown) reads 31

The reported % Inhibition (FS) value, β-secretase (BACE) (Homo sapiens, UniProt P56817), for CC(C)CC(=O)NC[C@@H](C(C)C)N1Cc2cc(Oc3ccccc3)ccc2N=C1N reads 119

====

# experimental.system: β-secretase (BACE) (Homo sapiens, UniProt P56817)
# Construct: purchased Panvera
# method: BACE FS1 % Inhibition Assay
# Type: biochemical
# setup.conditions: 3 μM test compound
Please provide measured % Inhibition (FS) for the entries that follow.
A number alone suffices; assume %.

# molecule NC1=Nc2ccc(Oc3ccccc3)cc2CN1C1CCN(C(=O)C23CC4CC(CC(C4)C2)C3)CC1 ; its % Inhibition (FS) = 44

# molecule CC(C)CC(=O)NCCN1Cc2cc(Oc3ccccc3)ccc2N=C1N ; its % Inhibition (FS) = 101

# molecule Cc1ccc(-c2ccc3c(c2)CN(CCNC(=O)C2CCCCC2)C(N)=N3)cc1 ; its % Inhibition (FS) = 32

# molecule CN(C(=O)c1cccc(CN2Cc3cc(-c4ccc5[nH]ccc5c4)ccc3N=C2N)c1)C1CCCCC1 ; its % Inhibition (FS) = 37

====

Please provide measured % Inhibition (FS) for the entries that follow.
# experimental.system: β-secretase (BACE) (Homo sapiens, UniProt P56817)
# Construct: purchased Panvera
# method: BACE FS1 % Inhibition Assay
# Assay type: biochemical
# setup.conditions: 1 μM compound; FS1 substrate
A number alone suffices; assume %.

# compound COC1CCCC(C(=O)NCCN2Cc3cc(-c4ccccc4)ccc3N=C2N)C1 (centres unmarked) ; its % Inhibition (FS) = 46

# compound COC(=O)Cc1cccc(CN(C)C(=O)CCC(C2CCCCC2)N2Cc3cc(Oc4ccccc4)ccc3N=C2N)c1 (centres unmarked) ; its % Inhibition (FS) = 62

# compound NC1=Nc2ccc(-c3ccccc3F)cc2CN1CCNC(=O)CCC(F)(F)F ; its % Inhibition (FS) = 75

# compound CN(CCc1ccccc1)C(=O)CC[C@@H](C1CCCCC1)N1Cc2cc(-c3ccccc3F)ccc2N=C1N ; its % Inhibition (FS) = 80

====

# experimental.system: β-secretase (BACE) (Homo sapiens)
# Construct: purchased Panvera
# method: BACE FS1 % Inhibition Assay
# Format: biochemical
# setup.conditions: 1 μM test compound
quantity.name: % Inhibition (FS)

# molecule Cc1ccccc1-c1ccc2c(c1)CN(CCNC(=O)C1CCC1)C(N)=N2 ; its % Inhibition (FS) = 87%

# molecule CCC(c1cccc(C(=O)N(C)C2CCCCC2)c1)N1Cc2cc(-c3ccccc3OC)ccc2N=C1N (centres unmarked) ; its % Inhibition (FS) = 107%

# molecule NC1=Nc2ccc(Oc3ccccc3)cc2CN1Cc1cccc(C(=O)N2CCCC3CCCCC32)c1 (centres unmarked) ; its % Inhibition (FS) = <30%

# molecule Cc1ccc(Sc2ccc3c(c2)CN(Cc2cccc(C(=O)N(C)C4CCCCC4)c2)C(N)=N3)cc1C ; its % Inhibition (FS) = 34%

# molecule NC1=Nc2ccc(Oc3ccccc3)cc2CN1C(CC(=O)NC1CCCCC1)c1ccccc1 (centres unmarked) ; its % Inhibition (FS) = <30%

# molecule NC1=Nc2ccc(-c3ccccc3F)cc2CN1CCNC(=O)C1CCCC1 ; its % Inhibition (FS) = 92%

# molecule NC1=Nc2ccc(Oc3ccccc3)cc2CN1C(CCCC(=O)N1CCCCC1)CCC(=O)N1CCCCC1 (centres unmarked) ; its % Inhibition (FS) = 42%

# molecule COc1ccccc1Sc1ccc2c(c1)CN(Cc1cccc(C(=O)N(C)C3CCCCC3)c1)C(N)=N2 ; its % Inhibition (FS) = <30%

====

# experimental.system: β-secretase (BACE) (Homo sapiens)
# Construct: purchased Panvera
# method: BACE FS1 % Inhibition Assay
# Type: biochemical
# setup.conditions: 1 μM compound; FS1 substrate; read-out: % Inhibition (FS)
quantity.name: inhibition at 1 µM
// return the numeric value with its unit appended

# molecule COC(=O)[C@H]1CC[C@H](NC(=O)CC[C@@H](C2CCOCC2)N2Cc3cc(Oc4ccccc4)ccc3N=C2N)CC1 [Compound 747] ; its inhibition at 1 µM = 74%

# molecule CN(CCCCC(=O)O)C(=O)CC[C@@H](C1CCCCC1)N1Cc2cc(Oc3ccccc3)ccc2N=C1N [Compound 752] ; its inhibition at 1 µM = 81%

# molecule CC(C)N1CCC(N(C)C(=O)CC[C@@H](C2CCCCC2)N2Cc3cc(Oc4ccccc4)ccc3N=C2N)CC1 [Compound 728] ; its inhibition at 1 µM = 58%

# molecule CN(C(=O)CC[C@@H](C1CCCCC1)N1Cc2cc(Oc3ccccc3)ccc2N=C1N)C1CCC2(CC1)OCCO2 [Compound 710] ; its inhibition at 1 µM = 68%

# molecule CN(C(=O)CC[C@@H](C1CCCCC1)N1Cc2cc(Oc3ccccc3)ccc2N=C1N)C1CCC(=O)CC1 [Compound 711] ; its inhibition at 1 µM = 43%

# molecule CN(C(=O)CCC(C1CCCCC1)N1Cc2cc(Oc3ccccc3)ccc2N=C1N)C(COCc1ccccc1)C(=O)O (stereo not drawn) [Compound 781] ; its inhibition at 1 µM = 109%

====

# experimental.system: β-secretase (BACE) (Homo sapiens, UniProt P56817)
# Construct: purchased Panvera
# method: BACE FS1 % Inhibition Assay
# Assay type: biochemical
# setup.conditions: 3 μM test compound
Please provide measured % Inhibition (FS) for the entries that follow.

The reported % Inhibition (FS) value, β-secretase (BACE) (Homo sapiens, UniProt P56817), for NC1=Nc2ccc(Oc3ccccc3)cc2CN1CCNC(=O)C1CC1c1ccccc1 (centres unmarked) [Compound 139] reads <30%

The reported % Inhibition (FS) value, β-secretase (BACE) (Homo sapiens, UniProt P56817), for CCCC=Cc1ccc2c(c1)CN(CCNC(=O)CCC)C(N)=N2 [Compound 571] reads <30%

The reported % Inhibition (FS) value, β-secretase (BACE) (Homo sapiens, UniProt P56817), for CC(C)N(C(=O)CC(C1CCCCC1)N1Cc2cc(Oc3ccccc3)ccc2N=C1N)C1CCCCC1 (centres unmarked) [Compound 200] reads <30%

The reported % Inhibition (FS) value, β-secretase (BACE) (Homo sapiens, UniProt P56817), for CN(C(=O)CCC(c1ccc(-c2ccccc2)cc1)N1Cc2cc(Oc3ccccc3)ccc2N=C1N)C1CCCCC1 (centres unmarked) [Compound 420] reads 53%

The reported % Inhibition (FS) value, β-secretase (BACE) (Homo sapiens, UniProt P56817), for CC(C)C(CC(=O)N(C(C)C)C1CCCCC1)N1Cc2cc(Oc3ccccc3)ccc2N=C1N (centres unmarked) [Compound 202] reads <30%

The reported % Inhibition (FS) value, β-secretase (BACE) (Homo sapiens, UniProt P56817), for CCCC=Cc1ccc2c(c1)CN(CCNC(=O)C1CCCCC1)C(N)=N2 [Compound 577] reads <30%

The reported % Inhibition (FS) value, β-secretase (BACE) (Homo sapiens, UniProt P56817), for CN(C(=O)c1cccc(CN2Cc3cc(Oc4ccc5c(c4)CCCC5)ccc3N=C2N)c1)C1CCCCC1 [Compound 233] reads 36%

The reported % Inhibition (FS) value, β-secretase (BACE) (Homo sapiens, UniProt P56817), for CC(=O)Nc1ccc(Sc2ccc3c(c2)CN(Cc2cccc(C(=O)N(C)C4CCCCC4)c2)C(N)=N3)cc1 [Compound 417] reads 78%
